System: SK-MEL-28 melanoma
Assay: NCI tumour cell line growth inhibition, 48 h
Record form. Attribute: TGI. Fill in for each entry.

Solved cases (2 shown):
{"Compound": "Cc1cc(Cl)ccc1N=NC(=O)NNc1ccc(Cl)cc1C", "Readout label": "TGI", "Measured": "30.7 µM"}
{"Compound": "Cc1[nH]c(/C=C2\\C(=O)Nc3ccc(F)cc32)c(C)c1C(=O)NC[C@H](O)CN1CCOCC1", "Readout label": "TGI", "Measured": "> 10 µM"}

Could you now consider this next compound?
Please report the recorded TGI for COc1cc(-c2coc3c(OC)c(OC4OC(CO)C(O)C(O)C4O)c(OC)cc3c2=O)cc(OC)c1C (stereo not drawn) .
> 28.4 µM

----------
Record form. Attribute: TGI. Fill in for each entry.
Tested on: M14 melanoma
Experiment: NCI tumour cell line growth inhibition, 48 h

Solved cases (2 shown):
{"Chem smiles": "COC[n+]1cc2cc(OC)c(OC)cc2c2ccc3cc(OC)c(OC)cc3c21", "TGI": "> 100 µM"}
{"Chem smiles": "CCOC(=O)CC1=CSC2=NCCN12", "TGI": "> 100 µM"}

Please report the recorded TGI for COc1ccc(/C=C\c2cc(OC)c(OC)c(OC)c2)cc1OCC(=O)Nc1nc2ccc(C(F)(F)F)cc2s1 .
> 100 µM

----------
System: OVCAR-5 ovarian
Assay: NCI tumour cell line growth inhibition, 48 h
Record form. Attribute: GI50. Fill in for each entry.

Solved cases (3 shown):
{"Compound": "S=C(Nc1ccc(Cl)cc1)Nc1ccc(Cl)cc1 (tested in a mixture with another compound)", "Tested target": "OVCAR-5 ovarian", "GI50": "2.38 µM"}
{"Compound": "COc1ccc(/C=C\\c2cc(OC)c(OC)c(OC)c2)cc1OCC(=O)Nc1nc2ccc(C(F)(F)F)cc2s1", "Tested target": "OVCAR-5 ovarian", "GI50": "5.98 µM"}
{"Compound": "N=C(N)CCCCCCCCC(=N)N", "Tested target": "OVCAR-5 ovarian", "GI50": "26.4 µM"}

Could you now consider this next compound?
Please report the recorded GI50 for O=C(C(Br)Br)C(Br)C(Br)c1ccccc1 (centres undefined) .
6.6 µM

----------
System: HS 578T breast
Assay: NCI tumour cell line growth inhibition, 48 h
Readout label: TGI (µM)
One number for each entry, in µM.

Quick one: give me TGI for each item below, same order please.
1. O=C(Cc1ccccc1)c1ccc2[nH]c(=O)oc2c1
2. Cc1cc(S(=O)(=O)Nc2nnc(-c3ccccc3)c(-c3ccccc3)n2)c(SCc2ccccc2)cc1Cl
3. COc1ccc(CN(CCc2c[nH]c3ccccc23)Cc2ccc(OC)cc2)cc1

1. 22.9
2. 52.8
3. 63

Quick one: give me TGI for each item below, same order please.
1. CN(C)CCO/N=C1/C=C2CC[C@H]3[C@@H]4CC[C@H](O)[C@@]4(C)CC[C@@H]3[C@@]2(C)CC1
2. Nc1ccccc1C#C/C=C\C#Cc1ccc(Cl)cc1Cl
3. O=c1cc(-c2cccc(OC(F)(F)F)c2)[nH]c2cc3c(cc12)OCO3
4. CC(C)(O)C1OCC(C2CCC3(C)C4=CCC5C(C)(C)C(O)CCC5(C)C4CCC23C)CC1O (stereo unspecified)

[54.1, 8.49, 4.9, 29.3]
